// data source = BigSolDB 2.1

CONDITION_DESCRIPTION: in ethylene glycol, 288.35 K
MEASURED_PROPERTY: solubility (mole fraction)

Give its solubility (mole fraction) value. Item: `Cc1ccc2ccccc2c1`
0.00864

---

CONDITION_DESCRIPTION: in acetone, 288.35 K
MEASURED_PROPERTY: solubility (mole fraction)
Reply with the value as a number alone.

Give its solubility (mole fraction) value. Item: `Cc1ccc2ccccc2c1`
0.368

---

CONDITION_DESCRIPTION: in acetone, 283.25 K
MEASURED_PROPERTY: solubility (mole fraction)

Give its solubility (mole fraction) value. Item: `Cc1ccc2ccccc2c1`
0.286

---

CONDITION_DESCRIPTION: in n-butyl acetate, 283.15 K
MEASURED_PROPERTY: solubility (mole fraction)
Reply with the value as a number alone.

Give its solubility (mole fraction) value. Item: `Cc1ccc2ccccc2c1`
0.673

---

CONDITION_DESCRIPTION: in acetone, 298.35 K
MEASURED_PROPERTY: solubility (mole fraction)
Reply with the value as a number alone.

Give its solubility (mole fraction) value. Item: `Cc1ccc2ccccc2c1`
0.588

---

CONDITION_DESCRIPTION: in n-heptane, 303.15 K
MEASURED_PROPERTY: solubility (mole fraction)
Reply with the value as a number alone.

Give its solubility (mole fraction) value. Item: `Cc1ccc2ccccc2c1`
0.906

---

CONDITION_DESCRIPTION: in isopropanol, 298.35 K
MEASURED_PROPERTY: solubility (mole fraction)
Reply with the value as a number alone.

Give its solubility (mole fraction) value. Item: `Cc1ccc2ccccc2c1`
0.233

---

CONDITION_DESCRIPTION: in ethanol, 298.35 K
MEASURED_PROPERTY: solubility (mole fraction)

Give its solubility (mole fraction) value. Item: `Cc1ccc2ccccc2c1`
0.287

---

CONDITION_DESCRIPTION: in isopropanol, 293.25 K
MEASURED_PROPERTY: solubility (mole fraction)

Give its solubility (mole fraction) value. Item: `Cc1ccc2ccccc2c1`
0.133

---

CONDITION_DESCRIPTION: in 1,4-dioxane, 283.25 K
MEASURED_PROPERTY: solubility (mole fraction)
Reply with the value as a number alone.

Give its solubility (mole fraction) value. Item: `Cc1ccc2ccccc2c1`
0.508

---

CONDITION_DESCRIPTION: in n-hexane, 303.25 K
MEASURED_PROPERTY: solubility (mole fraction)
Reply with the value as a number alone.

Give its solubility (mole fraction) value. Item: `Cc1ccc2ccccc2c1`
0.811

---

CONDITION_DESCRIPTION: in ethylene glycol, 303.25 K
MEASURED_PROPERTY: solubility (mole fraction)

Give its solubility (mole fraction) value. Item: `Cc1ccc2ccccc2c1`
0.0115

---

CONDITION_DESCRIPTION: in n-butyl acetate, 303.15 K
MEASURED_PROPERTY: solubility (mole fraction)
Reply with the value as a number alone.

Give its solubility (mole fraction) value. Item: `Cc1ccc2ccccc2c1`
0.951

---

CONDITION_DESCRIPTION: in n-hexane, 293.25 K
MEASURED_PROPERTY: solubility (mole fraction)

Give its solubility (mole fraction) value. Item: `Cc1ccc2ccccc2c1`
0.55

---

CONDITION_DESCRIPTION: in ethanol, 283.25 K
MEASURED_PROPERTY: solubility (mole fraction)
Reply with the value as a number alone.

Give its solubility (mole fraction) value. Item: `Cc1ccc2ccccc2c1`
0.058
